FYI, the data here is from paper PMC7397269.

readout: MIC (µg/mL)
Unit µg/mL implied. Number only.

Write down the reported MIC of O=C(/C=C/c1ccc(Cl)cc1)c1ccc(NS(=O)(=O)c2c(O)c3cc(Cl)ccc3oc2=O)cc1 , test system: Escherichia coli ATCC 2592.
250

Write down the reported MIC of Cc1ccc2oc(=O)c3c(c2c1)OC(/N=C/c1ccc(Cl)cc1Cl)=C(C#N)C3c1ccco1 (racemic) , test system: Escherichia coli ATCC 2592.
1000

Write down the reported MIC of Cc1ccc2oc(=O)c(S(=O)(=O)Nc3ccc(C(=O)/C=C/c4ccc([N+](=O)[O-])cc4)cc3)c(O)c2c1 , test system: Escherichia coli ATCC 2592.
250

Write down the reported MIC of Cc1ccc2oc(=O)c(S(=O)(=O)Nc3ccccc3)c(O)c2c1 , test system: Escherichia coli ATCC 2592.
1000

---

readout: melting point

State the recorded melting point for this entry: Cc1ccc2oc(=O)c3c(c2c1)OC(/N=C/c1ccc(Cl)cc1Cl)=C(C#N)C3c1ccc([N+](=O)[O-])cc1 (racemic)
236 to 238 °C

State the recorded melting point for this entry: Cc1ccc2oc(=O)c(S(=O)(=O)Nc3ccc(C(=O)/C=C/c4ccc([N+](=O)[O-])cc4)cc3)c(O)c2c1
220 °C

State the recorded melting point for this entry: Cc1ccc2oc(=O)c(S(=O)(=O)Nc3ccc(S(=O)(=O)Nc4ncccn4)cc3)c(O)c2c1
207 to 209 °C

State the recorded melting point for this entry: Cc1ccc2oc(=O)c(S(=O)(=O)Nc3ccc(O)cc3)c(O)c2c1
253 to 254 °C

State the recorded melting point for this entry: NS(=O)(=O)c1ccc(NS(=O)(=O)c2c(O)c3cc(Cl)ccc3oc2=O)cc1
245 to 247 °C

State the recorded melting point for this entry: Cc1ccc2oc(=O)c(S(=O)(=O)Nc3ccccc3)c(O)c2c1
324 to 325 °C

State the recorded melting point for this entry: COc1ccc(/C=C/C(=O)c2ccc(NS(=O)(=O)c3c(O)c4cc(C)ccc4oc3=O)cc2)cc1
> 300 °C

State the recorded melting point for this entry: Cc1ccc2oc(=O)c(S(=O)(=O)Nc3ccc(S(N)(=O)=O)cc3)c(O)c2c1
241 to 243 °C

State the recorded melting point for this entry: Cc1ccc2oc(=O)c(S(=O)(=O)Nc3ccc(S(=O)(=O)Nc4nccs4)cc3)c(O)c2c1
167 to 169 °C

State the recorded melting point for this entry: CC(=O)c1ccc(NS(=O)(=O)c2c(O)c3cc(C)ccc3oc2=O)cc1
231 to 232 °C

State the recorded melting point for this entry: COc1cc(/C=N/C2=C(C#N)C(c3ccc([N+](=O)[O-])cc3)c3c(c4cc(C)ccc4oc3=O)O2)cc(OC)c1OC (racemic)
221 to 223 °C

State the recorded melting point for this entry: Cc1ccc2oc(=O)c3c(c2c1)OC(N)=C(C#N)C3c1ccco1 (racemic)
251 to 253 °C

State the recorded melting point for this entry: O=c1oc2ccc(Cl)cc2c(O)c1S(=O)(=O)Nc1ccccc1
337 to 339 °C

State the recorded melting point for this entry: Cc1ccc2oc(=O)c3c(c2c1)OC(N)=C(C(N)=O)C3c1ccc([N+](=O)[O-])cc1 (racemic)
142 to 144 °C

State the recorded melting point for this entry: CC(=O)c1ccc(NS(=O)(=O)c2c(O)c3cc(Cl)ccc3oc2=O)cc1
238 to 240 °C

State the recorded melting point for this entry: O=C(/C=C/c1ccc([N+](=O)[O-])cc1)c1ccc(NS(=O)(=O)c2c(O)c3cc(Cl)ccc3oc2=O)cc1
205 to 207 °C

State the recorded melting point for this entry: Cc1ccc2oc(=O)c3c(c2c1)OC(/N=C/c1ccccc1)=C(C#N)C3c1ccco1 (racemic)
250 to 252 °C
